- Measured Target: LovD (Aspergillus terreus)
- Construct: made in house; host or cells: E. coli BL21(DE3)/pAW31
- Sequence (Q9Y7D1 whole entry): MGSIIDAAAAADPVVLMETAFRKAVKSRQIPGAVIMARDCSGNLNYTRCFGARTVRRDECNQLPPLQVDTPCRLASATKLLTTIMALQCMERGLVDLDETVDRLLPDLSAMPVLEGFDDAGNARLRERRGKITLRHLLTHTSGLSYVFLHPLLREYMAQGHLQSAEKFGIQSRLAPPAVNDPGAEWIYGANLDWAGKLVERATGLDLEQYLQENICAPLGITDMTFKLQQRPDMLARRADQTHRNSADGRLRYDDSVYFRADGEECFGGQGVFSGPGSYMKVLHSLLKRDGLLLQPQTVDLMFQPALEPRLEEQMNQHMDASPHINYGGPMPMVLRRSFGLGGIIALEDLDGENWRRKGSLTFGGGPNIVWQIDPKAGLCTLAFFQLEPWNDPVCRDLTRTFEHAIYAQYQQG
- Test Description: Initial velocities of thioester substrates with pure LovD
- Format: biochemical
- Test Settings: 1 mM MJ, 4 mM thioester substrate, 10 uM pure LovD, 50 mM HEPES, pH 7.9
Result Type: Initial Velocity (ki)
Record the result as a number with its unit.

Compound	Initial Velocity (ki)
CCC(C)(C)C(=O)SCCCC(=O)OC [DMB-S-MMB]	0.78 min⁻¹
CCC(C)(C)C(=O)SCC(=O)OC [DMB-S-MTG, dimethylbutyryl-S-methyl thioglycolate]	0.03 min⁻¹
CCOC(=O)CCSC(=O)C(C)(C)CC [DMB-S-EMP]	0.70 min⁻¹
CCC(C)(C)C(=O)SCCNC(C)=O [DMB-S-NAC, α-dimethylbutyryl-SNAC]	0.02 min⁻¹

Consider now this further compound.
*Q* What reported Initial Velocity (ki) corresponds to CCC(C)(C)C(=O)SCCC(=O)O [DMB-S-MPA] on LovD (Aspergillus terreus)?
*A* 0.08 min⁻¹
